Attribution: patent EP0051773A1

# Proteus rettgeri BC 7: MIC values follow
Numbers only, in µg/mL.

Worked examples, 2 molecules total:
For Proteus rettgeri BC 7, give the measured MIC of the entry CC1(C)S[C@@H]2[C@H](NC(=O)[C@H](NC(=O)Nc3cnc(Nc4ccc(S(N)(=O)=O)cc4)nc3O)c3ccccc3)C(=O)N2[C@H]1C(=O)O 0.25

// fetch MIC for CCN1CCN(C(=O)N[C@@H](C(=O)N[C@@H]2C(=O)N3[C@@H]2SC(C)(C)[C@@H]3C(=O)O)c2ccccc2)C(=O)C1=O [D, Piperacillin, reference compound] ; system: Proteus rettgeri BC 7 0.5

Others:
Report MIC under test system Proteus rettgeri BC 7 for CC1(C)S[C@@H]2[C@H](NC(=O)[C@H](NC(=O)Nc3cnccc3O)c3ccccc3)C(=O)N2[C@H]1C(=O)O [C, reference compound] . 1

###

Tested on: Proteus mirabilis Hamburgensis
Test: serial dilution test in microtiter system (bacteriostasis, MIC)
Type: cell-based
Details: liquid medium, 18 to 20 h at 37°C, read-out: MHK-Werte Prot. mir. Hbg.
OUTCOME MEASURE: MIC (µg/mL)
Answers are plain numbers, in µg/mL.

Past entries and their recorded results:
Provide Proteus mirabilis Hamburgensis MIC reading for CC1(C)S[C@@H]2[C@H](NC(=O)[C@H](NC(=O)Nc3cnc(Nc4ccc(S(N)(=O)=O)cc4)nc3O)c3ccc(O)c(Cl)c3)C(=O)N2[C@H]1C(=O)O [Verbindung 4] . 0.25

Tell me MIC of CC1(C)SC2C(NC(=O)C(NC(=O)Nc3cnc(Nc4ccc(S(N)(=O)=O)c(O)c4)nc3O)c3ccc(O)cc3)C(=O)N2C1C(=O)O (stereo not drawn) [Verbindung 44] when tested on Proteus mirabilis Hamburgensis. 0.03

Name the value of MIC reported for CCCCS(=O)(=O)c1ccc(Nc2ncc(NC(=O)NC(C(=O)NC3C(=O)N4C3SC(C)(C)C4C(=O)O)c3ccc(O)cc3)c(O)n2)cc1 (stereo not drawn) [Verbindung 32] when tested on Proteus mirabilis Hamburgensis. 0.06

For the 7 compounds below, give their MIC values.
1. CC1(C)S[C@@H]2[C@H](NC(=O)[C@H](NC(=O)N3CCN(S(C)(=O)=O)C3=O)c3ccccc3)C(=O)N2[C@H]1C(=O)O [B, Mezlocillin, reference compound]
2. CNS(=O)(=O)c1ccc(Nc2ncc(NC(=O)N[C@@H](C(=O)N[C@@H]3C(=O)N4[C@@H]3SC(C)(C)[C@@H]4C(=O)O)c3ccc(O)c(Cl)c3)c(O)n2)cc1 [Verbindung 13]
3. CNC(=O)c1ccc(Nc2ncc(NC(=O)NC(C(=O)NC3C(=O)N4C3SC(C)(C)C4C(=O)O)c3ccc(O)cc3)c(O)n2)cc1 (stereo not drawn) [Verbindung 37]
4. CNS(=O)(=O)c1ccc(Nc2ncc(NC(=O)N[C@@H](C(=O)N[C@@H]3C(=O)N4[C@@H]3SC(C)(C)[C@@H]4C(=O)O)c3ccc(O)cc3)c(O)n2)cc1 [Verbindung 7]
5. CC1(C)S[C@@H]2[C@H](NC(=O)[C@H](NC(=O)N3CCNC3=O)c3ccccc3)C(=O)N2[C@H]1C(=O)O [A, reference compound]
6. CC1(C)S[C@@H]2[C@H](NC(=O)C(NC(=O)Nc3cnc(NCc4ccc(O)cc4)nc3O)c3ccc(O)cc3)C(=O)N2[C@H]1C(=O)O (stereo partly drawn) [Verbindung 57]
7. CC1(C)SC2C(NC(=O)C(NC(=O)Nc3cnc(Nc4ccc(C(N)=O)cc4)nc3O)c3ccccc3)C(=O)N2C1C(=O)O (stereo not drawn) [Verbindung 34]

0.25
0.25
0.06
0.06
0.5
0.06
0.06

Return reported MIC values for all items listed beneath this line.
1. CC1(C)SC2C(NC(=O)C(NC(=O)Nc3cnc(Nc4ccc(S(N)(=O)=O)c(O)c4)nc3O)c3ccccc3)C(=O)N2C1C(=O)O (stereo not drawn) [Verbindung 45]
2. CC1(C)SC2C(NC(=O)C(NC(=O)Nc3cnc(Nc4ccc(C(N)=O)cc4)nc3O)c3ccc(O)c(Cl)c3)C(=O)N2C1C(=O)O (stereo not drawn) [Verbindung 35]

1. 0.06
2. 0.25
